Test system: MDA-MB-435
Test: Compound was evaluated for in vitro activity against MDA-MB-435 breast cancer cell lines (Human tumor cells )
Type: functional, cell-based
pIC50: −log10 of the molar value.
Catalogue of pIC50 readings, one per entry.

| molecule | bound_type | pIC50 |
| --- | --- | --- |
| Nc1nc(N)c2nc(CNc3ccc(C(=O)NC(CCCNC(=O)c4ccccc4C(=O)O)C(=O)O)cc3)cnc2n1 (stereo not drawn) | = | 8.51 |
| Cc1c(CNc2ccc(C(=O)NC(CCCNC(=O)c3ccccc3C(=O)O)C(=O)O)cc2)cnc2nc(N)nc(N)c12 (stereo not drawn) | = | 9.22 |
| CN(Cc1cnc2nc(N)nc(N)c2n1)c1ccc(C(=O)N[C@@H](CCC(=O)O)C(=O)O)cc1 [METHOTREXATE] | < | 6.00 |
